Test system: SK-OV-3
ASSAY_PROTOCOL: In vitro cytotoxicity against SKOV3 cell proliferation after 18 hr exposure in presence of 1 mM NADH
Assay type: functional, cell-based
CONDITIONS_USED: Homo sapiens, SK-OV-3, 18 h
EXPERIMENTAL_READOUT: pIC50
# pIC50: negative log10 of molar concentration; output just the value

// pIC50 lookup, molecule = COc1cc2cc(C(=O)N3CC(CCl)c4c3cc(NC(=O)OCc3cnc([N+](=O)[O-])n3C)c3ccccc43)[nH]c2c(OC)c1OC (configuration not stated) , result: 7.24

Note to self: pIC50 recorded for COc1cc2cc(C(=O)N3CC(CCl)c4c3cc(N)c3ccccc43)[nH]c2c(OC)c1OC (configuration not stated) was 9.02
